assay: Metabolic stability in mouse microsomes; type: ADME, Microsome; details: read-out: Stability
readout-name: microsomal CLint (µL/min/mg)

P = N#Cc1cccc(-c2cc(C(=O)N3CCN(C(=O)c4ccc(Br)cn4)[C@@H](c4ccc(Cl)cc4)C3)c[nH]c2=O)c1
Q = O=C(c1cnn2cc(Br)ccc12)N1CCN(C(=O)c2ccc(Br)cc2)[C@@H](c2ccc(Cl)cc2)C1
R = O=C(c1c[nH]c(=O)c2ccccc12)N1CCN(C(=O)c2ccc(Br)cc2)[C@@H](c2ccc(Cl)cc2)C1
Put the items above in order of decreasing microsomal CLint. Use the labels to give the requested order.
Q, P, R
(Q: 227 µL/min/mg, P: 113 µL/min/mg, R: 16 µL/min/mg)

###

test: Solubility of the compound at pH 6.8; format: physicochemical; conditions: buffer
readout-name: solubility (µg/mL)

{"smiles-record": "Cn1cc(C(=O)N2CCN(C(=O)c3ccc(Br)cn3)[C@@H](c3ccc(Cl)cc3)C2)cc(-c2cccc(C#N)c2)c1=O", "solubility, µg/mL": 12}

P = O=C(c1c[nH]c(=O)c2ccccc12)N1CCN(C(=O)c2ccc(Br)cc2)[C@@H](c2ccc(Cl)cc2)C1
Q = N#Cc1cccc(-c2cc(C(=O)N3CCN(C(=O)c4ccc(Br)cn4)[C@@H](c4ccc(Cl)cc4)C3)c[nH]c2=O)c1
Hi, I'm comparing two records. Which one has the lower solubility, P or Q ? Could you answer with the label of the item you picked?
Q

###

molecular target: UniProt P38919; assay: Inhibition of MLN51-induced full length recombinant human N-terminal His6/SUMO-tagged eIF4A3 RNA dependent ATPase activity expressed in Escherichia coli BL21(DE3) using single stranded poly(U) RNA as substrate after 30 mins by ADP-Glo luminescence assay
Sequence (P38919 whole entry): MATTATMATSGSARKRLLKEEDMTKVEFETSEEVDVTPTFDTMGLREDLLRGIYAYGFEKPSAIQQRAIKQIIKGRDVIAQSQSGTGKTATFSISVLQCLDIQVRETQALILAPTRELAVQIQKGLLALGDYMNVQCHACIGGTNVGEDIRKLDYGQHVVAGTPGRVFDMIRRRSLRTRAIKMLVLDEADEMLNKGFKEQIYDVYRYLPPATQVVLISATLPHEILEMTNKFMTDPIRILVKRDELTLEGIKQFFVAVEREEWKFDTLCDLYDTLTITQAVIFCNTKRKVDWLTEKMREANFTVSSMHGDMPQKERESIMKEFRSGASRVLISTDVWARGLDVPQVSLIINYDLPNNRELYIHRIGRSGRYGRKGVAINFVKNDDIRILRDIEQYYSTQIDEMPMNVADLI
pIC50: −log10 of the molar value.
readout-name: pIC50

{"compound": "CS(=O)(=O)c1cccc(-c2cc(C(=O)N3CCN(C(=O)c4ccc(Cl)cc4)C(c4ccc(Cl)cc4)C3)c[nH]c2=O)c1 (configuration not stated)", "system-tested": "UniProt P38919", "pIC50": 6.31}

P = O=C(c1c[nH]c(=O)c(-c2cccc(C(F)(F)F)c2)c1)N1CCN(C(=O)c2ccc(Cl)cc2)C(c2ccc(Cl)cc2)C1 (configuration not stated)
Q = O=C(c1c[nH]c(=O)c(-c2ccccc2)c1)N1CCN(C(=O)c2ccc(Cl)cc2)C(c2ccc(Cl)cc2)C1 (configuration not stated)
R = Cn1cc(C(=O)N2CCN(C(=O)c3ccc(Br)cn3)[C@@H](c3ccc(Cl)cc3)C2)cc(-c2cccc(C#N)c2)c1=O
S = O=C(c1c[nH]c(=O)c2ccccc12)N1CCN(C(=O)c2ccc(Cl)cc2)C(c2ccc(Cl)cc2)C1 (configuration not stated)
Sort these compounds on pIC50 so the largest reading comes first. # format: label list in the order the request specifies
R, Q, P, S

I = O=C(c1c[nH]c(=O)c(-c2ccc(Cl)cc2)c1)N1CCN(C(=O)c2ccc(Cl)cc2)C(c2ccc(Cl)cc2)C1 (configuration not stated)
II = O=C(c1c[nH]c(=O)c2ccccc12)N1CCN(C(=O)c2ccc(Br)cc2)[C@@H](c2ccc(Cl)cc2)C1
Look at I and II . Which one has the lower recorded pIC50 number? Record your answer as the label of the chosen record.
I

###

target: MDR1 (ABCB1, P-glycoprotein) (Homo sapiens, UniProt P08183); assay: Substrate activity at MDR1 (unknown origin) assessed as efflux ratio of permeability; assay type: ADME; conditions: not told
Sequence (P08183 whole entry): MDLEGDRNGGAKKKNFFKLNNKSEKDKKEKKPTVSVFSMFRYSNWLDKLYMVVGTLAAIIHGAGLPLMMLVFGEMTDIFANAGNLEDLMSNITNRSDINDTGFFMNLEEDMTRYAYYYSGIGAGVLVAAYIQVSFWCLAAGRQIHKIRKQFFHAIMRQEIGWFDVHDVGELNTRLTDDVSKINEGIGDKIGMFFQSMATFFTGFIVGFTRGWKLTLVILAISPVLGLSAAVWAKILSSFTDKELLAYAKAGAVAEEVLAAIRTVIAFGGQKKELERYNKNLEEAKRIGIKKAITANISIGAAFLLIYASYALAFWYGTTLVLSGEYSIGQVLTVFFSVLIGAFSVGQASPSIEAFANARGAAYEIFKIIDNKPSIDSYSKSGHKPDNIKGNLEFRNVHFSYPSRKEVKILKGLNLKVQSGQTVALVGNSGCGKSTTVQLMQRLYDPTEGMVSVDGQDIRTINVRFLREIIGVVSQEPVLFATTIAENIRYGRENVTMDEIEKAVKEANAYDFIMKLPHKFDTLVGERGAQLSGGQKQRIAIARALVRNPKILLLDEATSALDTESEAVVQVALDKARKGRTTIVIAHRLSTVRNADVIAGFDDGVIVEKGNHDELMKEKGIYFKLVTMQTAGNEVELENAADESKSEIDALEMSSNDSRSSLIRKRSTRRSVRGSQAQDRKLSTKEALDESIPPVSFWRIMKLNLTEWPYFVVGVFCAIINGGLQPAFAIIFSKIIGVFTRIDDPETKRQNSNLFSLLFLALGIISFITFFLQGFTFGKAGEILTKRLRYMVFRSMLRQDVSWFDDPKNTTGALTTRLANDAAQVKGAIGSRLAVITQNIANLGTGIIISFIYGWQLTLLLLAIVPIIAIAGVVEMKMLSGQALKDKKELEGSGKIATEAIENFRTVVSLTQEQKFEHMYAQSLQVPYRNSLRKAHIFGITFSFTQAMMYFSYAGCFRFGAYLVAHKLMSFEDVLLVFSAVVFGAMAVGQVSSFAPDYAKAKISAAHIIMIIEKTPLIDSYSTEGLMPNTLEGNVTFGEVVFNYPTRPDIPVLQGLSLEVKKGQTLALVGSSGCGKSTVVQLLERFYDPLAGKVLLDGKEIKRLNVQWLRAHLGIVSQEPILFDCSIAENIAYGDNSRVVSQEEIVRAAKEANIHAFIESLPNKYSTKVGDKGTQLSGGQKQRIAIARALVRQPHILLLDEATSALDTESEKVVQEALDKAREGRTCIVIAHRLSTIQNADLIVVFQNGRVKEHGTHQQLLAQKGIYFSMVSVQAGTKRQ
readout-name: efflux ratio

{"smiles-record": "Cn1cc(C(=O)N2CCN(C(=O)c3ccc(Br)cn3)[C@@H](c3ccc(Cl)cc3)C2)cc(-c2cccc(C#N)c2)c1=O", "reported": 25}

1 = O=C(c1cnn2cc(Br)ccc12)N1CCN(C(=O)c2ccc(Br)cc2)[C@@H](c2ccc(Cl)cc2)C1
2 = N#Cc1cccc(-c2cc(C(=O)N3CCN(C(=O)c4ccc(Br)cn4)[C@@H](c4ccc(Cl)cc4)C3)c[nH]c2=O)c1
Between 1 and 2 , which one has the lower reported efflux ratio value? Answer = label.
1
(1: 0.9, 2: 35)

###

molecular target: Eukaryotic initiation factor 4A-I (Homo sapiens, UniProt P60842); assay: Inhibition of eIF4G-induced full length recombinant human N-terminal His6/SUMO-tagged eIF4A1 RNA dependent ATPase activity expressed in Escherichia coli BL21(DE3) using single stranded poly(U) RNA as substrate after 40 mins by ADP-Glo luminescence assay
Sequence (P60842 whole entry): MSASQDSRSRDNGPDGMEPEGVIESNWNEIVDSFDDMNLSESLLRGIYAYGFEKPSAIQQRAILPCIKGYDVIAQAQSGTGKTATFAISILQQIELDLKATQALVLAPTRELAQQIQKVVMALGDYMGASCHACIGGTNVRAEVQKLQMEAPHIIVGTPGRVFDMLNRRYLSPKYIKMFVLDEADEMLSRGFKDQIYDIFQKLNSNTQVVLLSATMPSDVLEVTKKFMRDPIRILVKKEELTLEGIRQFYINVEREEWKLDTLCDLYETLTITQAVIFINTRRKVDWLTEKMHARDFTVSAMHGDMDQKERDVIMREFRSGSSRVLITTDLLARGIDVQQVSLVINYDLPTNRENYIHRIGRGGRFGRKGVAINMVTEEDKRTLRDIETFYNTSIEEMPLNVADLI
pIC50: −log10 of the molar value.
readout-name: pIC50

May I ask what pIC50 has been recorded for `Cn1cc(C(=O)N2CCN(C(=O)c3ccc(Br)cn3)[C@@H](c3ccc(Cl)cc3)C2)cc(-c2cccc(C#N)c2)c1=O` ?
< 4.00
